Values compiled from patent US20200016159A1.

Molecular target: human adenosine A2b receptor (Homo sapiens)
Sequence (P29275 1-332): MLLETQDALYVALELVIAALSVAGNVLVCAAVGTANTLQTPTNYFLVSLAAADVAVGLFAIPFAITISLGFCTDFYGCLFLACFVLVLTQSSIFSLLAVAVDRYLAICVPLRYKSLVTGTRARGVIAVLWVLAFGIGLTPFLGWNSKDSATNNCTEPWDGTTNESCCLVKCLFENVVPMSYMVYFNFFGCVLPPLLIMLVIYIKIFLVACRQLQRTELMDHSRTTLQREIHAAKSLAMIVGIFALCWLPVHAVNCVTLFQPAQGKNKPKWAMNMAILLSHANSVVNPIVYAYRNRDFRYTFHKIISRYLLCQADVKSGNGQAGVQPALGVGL
Experiment: Cellular in vitro reporter gene test for A2b receptor activity (antagonism of NECA)
Settings: recombinant CHO-K1 cells, CRE-luciferase reporter, co-incubation with EC50 concentration of NECA, 3 hours
recorded metric: IC50 (nM)

(I) Cc1c(CN2CCNC2=O)sc2c1c(=O)n([C@H]1C[C@@H]1C)c(=O)n2CC1COC1
(II) COCCn1c(=O)n(C2CCC2)c(=O)c2c(C)c(Cn3nc[nH]c3=O)sc21
(III) Cc1c(CN2CCNC2=O)sc2c1c(=O)n(C1CC1C)c(=O)n2CC1CCOC1 (stereo not drawn) [Example 289]
Problem: Sort the items above by IC50, starting with the smallest value. Output spec: labels arranged per the requested ranking.
Solution: I, II, III
(I: 4.1 nM, II: 12 nM, III: 35 nM)
